# TEST TARGET: Angiotensin Converting Enzyme (ACE) (Homo sapiens)
# Sequence (P12821 30-1232 limits assumed): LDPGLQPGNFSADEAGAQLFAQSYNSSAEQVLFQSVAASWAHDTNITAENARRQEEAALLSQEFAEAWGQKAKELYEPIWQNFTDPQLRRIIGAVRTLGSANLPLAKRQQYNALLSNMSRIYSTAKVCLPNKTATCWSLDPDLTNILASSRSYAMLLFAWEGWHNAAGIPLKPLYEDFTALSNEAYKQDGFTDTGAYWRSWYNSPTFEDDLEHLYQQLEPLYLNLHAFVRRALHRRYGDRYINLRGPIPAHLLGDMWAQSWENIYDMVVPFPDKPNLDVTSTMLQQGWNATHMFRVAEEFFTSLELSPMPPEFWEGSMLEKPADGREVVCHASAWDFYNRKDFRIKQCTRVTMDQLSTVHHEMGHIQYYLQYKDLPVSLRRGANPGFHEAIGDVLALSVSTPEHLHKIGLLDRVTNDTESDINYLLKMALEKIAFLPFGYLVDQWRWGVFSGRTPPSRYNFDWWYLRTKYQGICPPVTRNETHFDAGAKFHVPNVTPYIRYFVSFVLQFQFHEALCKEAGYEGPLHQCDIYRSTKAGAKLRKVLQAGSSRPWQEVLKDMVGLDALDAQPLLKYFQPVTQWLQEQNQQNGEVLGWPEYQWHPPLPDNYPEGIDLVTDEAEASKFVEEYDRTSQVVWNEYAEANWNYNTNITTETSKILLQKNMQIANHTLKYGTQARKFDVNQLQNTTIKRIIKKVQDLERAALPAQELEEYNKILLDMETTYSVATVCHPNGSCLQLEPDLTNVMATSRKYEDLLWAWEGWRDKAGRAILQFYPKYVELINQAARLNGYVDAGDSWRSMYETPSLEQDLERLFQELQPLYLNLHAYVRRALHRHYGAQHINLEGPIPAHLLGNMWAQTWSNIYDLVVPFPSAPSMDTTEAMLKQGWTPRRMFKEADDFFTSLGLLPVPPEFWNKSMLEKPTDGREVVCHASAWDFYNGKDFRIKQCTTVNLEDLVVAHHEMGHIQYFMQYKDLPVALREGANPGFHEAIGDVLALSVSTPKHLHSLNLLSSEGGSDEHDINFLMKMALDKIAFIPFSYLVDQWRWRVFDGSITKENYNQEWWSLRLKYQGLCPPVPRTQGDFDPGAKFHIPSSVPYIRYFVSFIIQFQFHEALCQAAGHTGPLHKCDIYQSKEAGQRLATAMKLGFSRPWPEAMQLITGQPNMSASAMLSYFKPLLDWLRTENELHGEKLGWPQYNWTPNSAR
# MEASUREMENT NOTES: ACE enzyme inhibition assay on samples from individuals reporting an ACE-inhibiting drug
# CONDITION: urine samples from individuals self-reporting the drug; count out of the LISTED number
QUANTITY KIND: DETECTED (samples testing positive for ACE-inhibiting drugs)

[
  {
    "COMPOUND": "CCOC(=O)[C@H](CCc1ccccc1)N[C@@H](C)C(=O)N1Cc2cc(OC)c(OC)cc2C[C@H]1C(=O)O [MOEXIPRIL, moexipril]",
    "TEST TARGET": "Angiotensin Converting Enzyme (ACE) (Homo sapiens)",
    "QUANTITATIVE RESULT": 3
  }
]

[a] CCOC(=O)[C@H](CCc1ccccc1)N[C@@H](C)C(=O)N1Cc2ccccc2C[C@H]1C(=O)O [QUINAPRIL, quinapril]
[b] NCCCC[C@H](N[C@@H](CCc1ccccc1)C(=O)O)C(=O)N1CCC[C@H]1C(=O)O [LISINOPRIL, lisinopril]
Please compare: a and b . Report which one has the smaller DETECTED (samples testing positive for ACE-inhibiting drugs) value. Your answer should be the label of the entry you select.
a
(a: 15, b: 22)

[A] CCOC(=O)[C@H](CCc1ccccc1)N[C@@H](C)C(=O)N1[C@H](C(=O)O)C[C@@H]2CCC[C@@H]21 [RAMIPRIL, ramipril]
[B] CCOC(=O)[C@H](CCc1ccccc1)N[C@@H](C)C(=O)N1CCC[C@H]1C(=O)O [ENALAPRIL, enalapril]
[C] CCOC(=O)[C@H](CCc1ccccc1)N[C@H]1CCc2ccccc2N(CC(=O)O)C1=O [BENAZEPRIL, benazepril]
List from greatest to least DETECTED (samples testing positive for ACE-inhibiting drugs). I'd appreciate it if you listed the labels in the requested order.
C, B, A
